Measured log10 of half-life, listed per entry for reference.
- Assay protocol: Mouse PK study (i.v. and p.o.)
- Format: in vivo
- Run parameters: plasma, iv, male CD1 mice, 1 mg/kg i.v., read-out: T1/2 (hr) i.v. (converted)
Measure: log10 of half-life (log10 of the value in h)

smiles_entry=C[C@@]1(O)CC[C@H]2[C@H](CC[C@@H]3[C@@H]2CC[C@]2(C)[C@@H](C(=O)Cn4nnn(-c5ccc(F)cc5)c4=O)CC[C@@H]32)C1 measured_result=0.59
smiles_entry=CC(C)n1nnn(CC(=O)[C@H]2CC[C@H]3[C@@H]4CC[C@@H]5C[C@](C)(O)CC[C@@H]5[C@H]4CC[C@]23C)c1=O measured_result=-0.27
smiles_entry=COc1cccc(-n2nnn(CC(=O)[C@H]3CC[C@H]4[C@@H]5CC[C@@H]6C[C@](C)(O)CC[C@@H]6[C@H]5CC[C@]34C)c2=O)c1 measured_result=-0.05
smiles_entry=CCn1nnn(CC(=O)[C@H]2CC[C@H]3[C@@H]4CC[C@@H]5C[C@](C)(O)CC[C@@H]5[C@H]4CC[C@]23C)c1=O measured_result=-0.24
smiles_entry=Cn1nnn(CC(=O)[C@H]2CC[C@H]3[C@@H]4CC[C@@H]5C[C@](C)(O)CC[C@@H]5[C@H]4CC[C@]23C)c1=O measured_result=0.16
smiles_entry=Cn1nccc1-n1nnn(CC(=O)[C@H]2CC[C@H]3[C@@H]4CC[C@@H]5C[C@](C)(O)CC[C@@H]5[C@H]4CC[C@]23C)c1=O measured_result=0.14
smiles_entry=C[C@@]1(O)CC[C@H]2[C@H](CC[C@@H]3[C@@H]2CC[C@]2(C)[C@@H](C(=O)Cn4nnn(C(F)(F)F)c4=O)CC[C@@H]32)C1 measured_result=-0.52

----------
// reported AUC(0-t) per item
- Assay protocol: Mouse PK study (i.v. and p.o.)
- Type: in vivo
- Run parameters: plasma, iv, male CD1 mice, 1 mg/kg i.v., read-out: AUClast (hr*ng/mL) i.v.
Measure: AUC(0-t) (ng·h/mL)

smiles_entry=Cn1nnn(CC(=O)[C@H]2CC[C@H]3[C@@H]4CC[C@@H]5C[C@](C)(O)CC[C@@H]5[C@H]4CC[C@]23C)c1=O units=ng·h/mL measured_result=1480
smiles_entry=C[C@@]1(O)CC[C@H]2[C@H](CC[C@@H]3[C@@H]2CC[C@]2(C)[C@@H](C(=O)Cn4nnn(-c5cn[nH]c5)c4=O)CC[C@@H]32)C1 units=ng·h/mL measured_result=2180
smiles_entry=Cn1nccc1-n1nnn(CC(=O)[C@H]2CC[C@H]3[C@@H]4CC[C@@H]5C[C@](C)(O)CC[C@@H]5[C@H]4CC[C@]23C)c1=O units=ng·h/mL measured_result=1010
smiles_entry=C[C@@]1(O)CC[C@H]2[C@H](CC[C@@H]3[C@@H]2CC[C@]2(C)[C@@H](C(=O)Cn4nnn(-c5cccc(C#N)c5)c4=O)CC[C@@H]32)C1 units=ng·h/mL measured_result=771
smiles_entry=CCn1nnn(CC(=O)[C@H]2CC[C@H]3[C@@H]4CC[C@@H]5C[C@](C)(O)CC[C@@H]5[C@H]4CC[C@]23C)c1=O units=ng·h/mL measured_result=673

----------
- Assay protocol: Mouse PK study (i.v. and p.o.)
- Format: in vivo
- Run parameters: plasma, po, male CD1 mice, 5 mg/kg p.o.
Measure: Tmax (h)

smiles_entry=C[C@@]1(O)CC[C@H]2[C@H](CC[C@@H]3[C@@H]2CC[C@]2(C)[C@@H](C(=O)Cn4nnn(CC5CC5)c4=O)CC[C@@H]32)C1 measure=Tmax measured_result=0.5
smiles_entry=C[C@@]1(O)CC[C@H]2[C@H](CC[C@@H]3[C@@H]2CC[C@]2(C)[C@@H](C(=O)Cn4nnn(-c5cccnc5)c4=O)CC[C@@H]32)C1 measure=Tmax measured_result=1
smiles_entry=C[C@@]1(O)CC[C@H]2[C@H](CC[C@@H]3[C@@H]2CC[C@]2(C)[C@@H](C(=O)Cn4nnn(-c5cccc(F)c5)c4=O)CC[C@@H]32)C1 measure=Tmax measured_result=1
smiles_entry=C[C@@]1(O)CC[C@H]2[C@H](CC[C@@H]3[C@@H]2CC[C@]2(C)[C@@H](C(=O)Cn4nnn(-c5ccc(F)cc5)c4=O)CC[C@@H]32)C1 measure=Tmax measured_result=1
smiles_entry=C[C@@]1(O)CC[C@H]2[C@H](CC[C@@H]3[C@@H]2CC[C@]2(C)[C@@H](C(=O)Cn4nnn(C5CCCC5)c4=O)CC[C@@H]32)C1 measure=Tmax measured_result=0.66
